Target: Dα1/Dβ1/Dβ2 nAChR (Drosophila melanogaster, UniProt P04755+P09478+P25162)
Construct: Dα1 (NP_524481); Dβ1 (NP_523927); Dβ2 (NP_524483); expressed in transfected cells; host or cells: Xenopus laevis oocytes (cRNA injection)
Assay: Voltage-clamp electrophysiology, nAChR expressed in X. laevis oocytes
Format: cell-based, D. melanogaster
Conditions: efficacy, mean ± standard error (n = 5)
Listed compounds paired with reported Imax

{"columns": ["item.smiles", "Imax"],
 "data": [
  ["O=[N+]([O-])NC1=NCCN1Cc1ccc(Cl)nc1", 0.076],
  ["CN/C(=N\\[N+](=O)[O-])NCc1cnc(Cl)s1", 0.360],
  ["N#C/N=C1\\SCCN1Cc1ccc(Cl)nc1", 0.043],
  ["CC(=O)OCC[N+](C)(C)C", 1]
]}

###

Molecular target: Dα3/Dβ1 nAChR (Drosophila melanogaster, UniProt P04755+Q9W3G6)
Construct: Dβ1 (NP_523927); expressed in transfected cells; host or cells: Xenopus laevis oocytes (cRNA injection)
Test: cell-based
Type: cell-based, D. melanogaster
Settings: efficacy; Dα3/Dβ1 nAChR; mean ± standard error (n = 5)
Listed compounds paired with reported Imax

{"columns": ["compound", "target.or.system", "Imax"],
 "data": [
  ["O=[N+]([O-])NC1=NCCN1Cc1ccc(Cl)nc1 [Imidacloprid, imidacloprid]", "Dα3/Dβ1 nAChR (Drosophila melanogaster, UniProt P04755+Q9W3G6)", 0.032],
  ["CN/C(=N\\[N+](=O)[O-])NCc1cnc(Cl)s1 [Clothianidin, clothianidin]", "Dα3/Dβ1 nAChR (Drosophila melanogaster, UniProt P04755+Q9W3G6)", 0.691],
  ["N#C/N=C1\\SCCN1Cc1ccc(Cl)nc1 [Thiacloprid, thiacloprid]", "Dα3/Dβ1 nAChR (Drosophila melanogaster, UniProt P04755+Q9W3G6)", 0.016],
  ["CC(=O)OCC[N+](C)(C)C [ACh, acetylcholine]", "Dα3/Dβ1 nAChR (Drosophila melanogaster, UniProt P04755+Q9W3G6)", 1]
]}

###

Molecular target: Dα1/Dα3/Dβ1/Dβ2 nAChR (Drosophila melanogaster, UniProt P04755+P09478+P25162+Q9W3G6)
Construct: Dα1 (NP_524481); Dβ1 (NP_523927); Dβ2 (NP_524483); expressed in transfected cells; host or cells: Xenopus laevis oocytes (cRNA injection)
Assay: cell-based
Parameters: species or system D. melanogaster
Conditions: efficacy, mean ± standard error (n = 5)
parameter.measured: Imax

{"columns": ["compound", "parameter.measured", "measurement"],
 "data": [
  ["O=[N+]([O-])NC1=NCCN1Cc1ccc(Cl)nc1 [Imidacloprid, imidacloprid]", "Imax", 0.330],
  ["CC(=O)OCC[N+](C)(C)C [ACh, acetylcholine]", "Imax", 1],
  ["CN/C(=N\\[N+](=O)[O-])NCc1cnc(Cl)s1 [Clothianidin, clothianidin]", "Imax", 0.684],
  ["N#C/N=C1\\SCCN1Cc1ccc(Cl)nc1 [Thiacloprid, thiacloprid]", "Imax", 0.107]
]}

###

Listed molecules paired with reported EC50
Molecular target: Dα3/Dβ1/Dβ2 nAChR (Drosophila melanogaster, UniProt P04755+P25162+Q9W3G6)
Construct: Dβ1 (NP_523927); Dβ2 (NP_524483); expressed in transfected cells; host or cells: Xenopus laevis oocytes (cRNA injection)
Test: Voltage-clamp electrophysiology, nAChR expressed in X. laevis oocytes
Type: cell-based, D. melanogaster
Conditions: Dα3/Dβ1/Dβ2 nAChR; read-out: EC50
Procedure: cDNAs of the nAChR subunits and co-factors were cloned into pcDNA3.1 (+) vector (Thermo Fisher Scientific). […] Each defolliculated X. laevis oocyte was secured in a Perspex recording chamber and perfused with the standard oocyte saline (SOS) containing 0.5 μM atropine (SOSA) at a flow rate of 7−10 mL/min [48]. […] The peak amplitude of the response was measured and analysed by pCLAMP (Molecular Devices, USA). […]
parameter.measured: EC50 (nM)

{"columns": ["molecule", "measurement"],
 "data": [
  ["O=[N+]([O-])NC1=NCCN1Cc1ccc(Cl)nc1 [Imidacloprid, imidacloprid]", 5.25],
  ["CN/C(=N\\[N+](=O)[O-])NCc1cnc(Cl)s1 [Clothianidin, clothianidin]", 34.7]
]}

###

Molecular target: Dα1/Dβ1 nAChR (Drosophila melanogaster, UniProt P04755+P09478)
Construct: Dα1 (NP_524481); Dβ1 (NP_523927)
Assay: Voltage-clamp electrophysiology, nAChR expressed in X. laevis oocytes
Conditions: mean ± standard error (n = 5)
pEC50: −log10 of the molar value.
Listed compounds paired with reported pEC50
parameter.measured: pEC50

{"columns": ["item.smiles", "target.or.system", "measurement"],
 "data": [
  ["O=[N+]([O-])NC1=NCCN1Cc1ccc(Cl)nc1", "Dα1/Dβ1 nAChR (Drosophila melanogaster, UniProt P04755+P09478)", 7.16],
  ["N#C/N=C1\\SCCN1Cc1ccc(Cl)nc1", "Dα1/Dβ1 nAChR (Drosophila melanogaster, UniProt P04755+P09478)", 7.79],
  ["CN/C(=N\\[N+](=O)[O-])NCc1cnc(Cl)s1", "Dα1/Dβ1 nAChR (Drosophila melanogaster, UniProt P04755+P09478)", 7.13]
]}

###

Listed molecules paired with reported EC50
Biological target: Dα1/Dβ1/Dβ2 nAChR (Drosophila melanogaster, UniProt P04755+P09478+P25162)
Construct: Dα1 (NP_524481); Dβ1 (NP_523927); Dβ2 (NP_524483); expressed in transfected cells; host or cells: Xenopus laevis oocytes (cRNA injection)
Assay: Voltage-clamp electrophysiology, nAChR expressed in X. laevis oocytes
Type: cell-based, D. melanogaster
Details: read-out: EC50

{"columns": ["item.smiles", "target.or.system", "EC50, nM"],
 "data": [
  ["CN/C(=N\\[N+](=O)[O-])NCc1cnc(Cl)s1", "Dα1/Dβ1/Dβ2 nAChR (Drosophila melanogaster, UniProt P04755+P09478+P25162)", 229],
  ["O=[N+]([O-])NC1=NCCN1Cc1ccc(Cl)nc1", "Dα1/Dβ1/Dβ2 nAChR (Drosophila melanogaster, UniProt P04755+P09478+P25162)", 102]
]}

###

Listed molecules paired with reported Imax
Target: Dα1/Dα2/Dβ1/Dβ2 nAChR (Drosophila melanogaster, UniProt P04755+P09478+P17644+P25162)
Construct: Dα1 (NP_524481); Dα2 (NP_524482); Dβ1 (NP_523927); Dβ2 (NP_524483); expressed in transfected cells; host or cells: Xenopus laevis oocytes (cRNA injection)
Assay: Voltage-clamp electrophysiology, nAChR expressed in X. laevis oocytes
Type: cell-based, D. melanogaster
Details: efficacy, mean ± standard error (n = 5)
Procedure: cDNAs of the nAChR subunits and co-factors were cloned into pcDNA3.1 (+) vector (Thermo Fisher Scientific). […] Each defolliculated X. laevis oocyte was secured in a Perspex recording chamber and perfused with the standard oocyte saline (SOS) containing 0.5 μM atropine (SOSA) at a flow rate of 7−10 mL/min [48]. […] The peak amplitude of the response was measured and analysed by pCLAMP (Molecular Devices, USA). […]

{"columns": ["item.smiles", "Imax"],
 "data": [
  ["N#C/N=C1\\SCCN1Cc1ccc(Cl)nc1", 0.074],
  ["CN/C(=N\\[N+](=O)[O-])NCc1cnc(Cl)s1", 0.800],
  ["O=[N+]([O-])NC1=NCCN1Cc1ccc(Cl)nc1", 0.165],
  ["CC(=O)OCC[N+](C)(C)C", 1]
]}

###

Listed compounds paired with reported Imax
Target: Dα3/Dβ1/Dβ2 nAChR (Drosophila melanogaster, UniProt P04755+P25162+Q9W3G6)
Construct: Dβ1 (NP_523927); Dβ2 (NP_524483); expressed in transfected cells; host or cells: Xenopus laevis oocytes (cRNA injection)
Assay: Voltage-clamp electrophysiology, nAChR expressed in X. laevis oocytes
Assay type: cell-based, D. melanogaster
Conditions: efficacy; Dα3/Dβ1/Dβ2 nAChR; mean ± standard error (n = 5)

{"columns": ["compound", "Imax"],
 "data": [
  ["O=[N+]([O-])NC1=NCCN1Cc1ccc(Cl)nc1 [Imidacloprid, imidacloprid]", 0.039],
  ["N#C/N=C1\\SCCN1Cc1ccc(Cl)nc1 [Thiacloprid, thiacloprid]", 0.022],
  ["CC(=O)OCC[N+](C)(C)C [ACh, acetylcholine]", 1],
  ["CN/C(=N\\[N+](=O)[O-])NCc1cnc(Cl)s1 [Clothianidin, clothianidin]", 0.492]
]}

###

Target: Dα2/Dα3/Dβ1/Dβ2 nAChR (Drosophila melanogaster, UniProt P04755+P17644+P25162+Q9W3G6)
Construct: Dα2 (NP_524482); Dβ1 (NP_523927); Dβ2 (NP_524483); expressed in transfected cells; host or cells: Xenopus laevis oocytes (cRNA injection)
Assay: Voltage-clamp electrophysiology, nAChR expressed in X. laevis oocytes
Format: cell-based, D. melanogaster
Conditions: efficacy, mean ± standard error (n = 5)
parameter.measured: Imax

{"columns": ["compound", "parameter.measured", "measurement"],
 "data": [
  ["CC(=O)OCC[N+](C)(C)C [ACh, acetylcholine]", "Imax", 1],
  ["CN/C(=N\\[N+](=O)[O-])NCc1cnc(Cl)s1 [Clothianidin, clothianidin]", "Imax", 0.634],
  ["N#C/N=C1\\SCCN1Cc1ccc(Cl)nc1 [Thiacloprid, thiacloprid]", "Imax", 0.017],
  ["O=[N+]([O-])NC1=NCCN1Cc1ccc(Cl)nc1 [Imidacloprid, imidacloprid]", "Imax", 0.125]
]}
